tested.target: 5-hydroxytryptamine receptor 3A (Cavia porcellus) (UniProt O70212)
Sequence (whole entry): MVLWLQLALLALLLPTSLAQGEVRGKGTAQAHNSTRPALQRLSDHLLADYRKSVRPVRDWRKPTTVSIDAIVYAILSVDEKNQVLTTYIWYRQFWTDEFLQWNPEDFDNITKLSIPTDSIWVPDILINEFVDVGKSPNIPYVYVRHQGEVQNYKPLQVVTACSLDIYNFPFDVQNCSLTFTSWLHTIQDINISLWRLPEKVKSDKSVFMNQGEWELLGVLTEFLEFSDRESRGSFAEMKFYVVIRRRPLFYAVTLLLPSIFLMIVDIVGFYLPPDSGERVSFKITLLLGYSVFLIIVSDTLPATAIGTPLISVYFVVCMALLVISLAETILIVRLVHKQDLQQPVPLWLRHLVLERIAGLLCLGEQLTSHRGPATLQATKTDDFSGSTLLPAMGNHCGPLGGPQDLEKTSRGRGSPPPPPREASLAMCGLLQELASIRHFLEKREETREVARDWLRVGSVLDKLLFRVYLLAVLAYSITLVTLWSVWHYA
measurement.notes: Agonist activity at 5HT3 receptor in Hartley guinea-pig ileum assessed as muscle contraction
Format: functional, tissue-based
pD2 values by entry
outcome.measure: pD2

[[record]]
compound = "CCOC(=O)c1ccc2oc(N3CCN(C)CC3)nc2c1"
inequality_symbol = "<"
numeric_readout = 4

[[record]]
compound = "CN1CCN(c2nc3cc(Cl)ccc3o2)CC1"
inequality_symbol = "="
numeric_readout = 6.07

[[record]]
compound = "CN1CCN(c2nc3cc([N+](=O)[O-])ccc3o2)CC1"
inequality_symbol = "="
numeric_readout = 6.1

[[record]]
compound = "COc1ccc2oc(N3CCN(C)CC3)nc2c1"
inequality_symbol = "="
numeric_readout = 4.78

[[record]]
compound = "Cc1cc(Cl)cc2nc(N3CCN(C)CC3)oc12"
inequality_symbol = "="
numeric_readout = 6.7

[[record]]
compound = "CCc1cc(C)cc2nc(N3CCN(C)CC3)oc12"
inequality_symbol = "="
numeric_readout = 6.46

[[record]]
compound = "CN1CCN(c2nc3cc(Br)ccc3o2)CC1"
inequality_symbol = "="
numeric_readout = 6.21

[[record]]
compound = "CN1CCN(c2nc3cc(C(C)(C)C)ccc3o2)CC1"
inequality_symbol = "<"
numeric_readout = 4

[[record]]
compound = "Cc1cc(Cl)c2oc(N3CCN(C)CC3)nc2c1"
inequality_symbol = "="
numeric_readout = 6.22

[[record]]
compound = "CN1CCN(c2nc3cc(C(F)(F)F)ccc3o2)CC1"
inequality_symbol = "<"
numeric_readout = 4

[[record]]
compound = "COc1cccc2nc(N3CCN(C)CC3)oc12"
inequality_symbol = "<"
numeric_readout = 4

[[record]]
compound = "CCc1ccc2oc(N3CCN(C)CC3)nc2c1"
inequality_symbol = "<"
numeric_readout = 4

[[record]]
compound = "CC(C)c1cccc2nc(N3CCN(C)CC3)oc12"
inequality_symbol = "<"
numeric_readout = 4

[[record]]
compound = "NCCc1c[nH]c2ccc(O)cc12"
inequality_symbol = "="
numeric_readout = 5.34

[[record]]
compound = "CN1CCN(c2nc3cc(Cl)cc(Cl)c3o2)CC1"
inequality_symbol = "="
numeric_readout = 6.51

[[record]]
compound = "COc1cc(C)cc2nc(N3CCN(C)CC3)oc12"
inequality_symbol = "="
numeric_readout = 6.13

[[record]]
compound = "COc1cc(Cl)cc2nc(N3CCN(C)CC3)oc12"
inequality_symbol = "="
numeric_readout = 6.16

[[record]]
compound = "Cc1ccc2oc(N3CCN(C)CC3)nc2c1"
inequality_symbol = "="
numeric_readout = 6

[[record]]
compound = "CN1C2CCCC1CC(NC(=O)c1nn(C)c3ccccc13)C2 (stereo unspecified)"
inequality_symbol = "<"
numeric_readout = 4

[[record]]
compound = "Cc1cccc2nc(N3CCN(C)CC3)oc12"
inequality_symbol = "="
numeric_readout = 5.48

[[record]]
compound = "CN1CCN(c2nc3cccc(Cl)c3o2)CC1"
inequality_symbol = "="
numeric_readout = 5.5


Ref: ChEMBL document CHEMBL1147936
